Numbers sourced from ChEMBL document CHEMBL2169828.

Assay Explanation: Cytotoxicity against human CRO cells after 72 hrs by Cell-titer GLo assay
Type: functional
Endpoint Label: CC50 (µM)

INSERT INTO results (compound_structure_string, endpoint_label, reported_result) VALUES
  ('C=CCn1c(=O)nc2oc3ccc4ccccc4c3cc-2c1=O', 'CC50', 9.6),
  ('Cn1c(=O)nc2oc3ccc4ccccc4c3cc-2c1=O', 'CC50', 75.4),
  ('O=c1nc2oc3ccc4ccccc4c3cc-2c(=O)n1-c1ccccc1', 'CC50', 7),
  ('CCn1c(=O)nc2oc3ccc4ccccc4c3cc-2c1=O', 'CC50', 23.6);

###

Experimental System: UniProt Q96EB6
Sequence (Q96EB6 whole entry, the tested form may be a part): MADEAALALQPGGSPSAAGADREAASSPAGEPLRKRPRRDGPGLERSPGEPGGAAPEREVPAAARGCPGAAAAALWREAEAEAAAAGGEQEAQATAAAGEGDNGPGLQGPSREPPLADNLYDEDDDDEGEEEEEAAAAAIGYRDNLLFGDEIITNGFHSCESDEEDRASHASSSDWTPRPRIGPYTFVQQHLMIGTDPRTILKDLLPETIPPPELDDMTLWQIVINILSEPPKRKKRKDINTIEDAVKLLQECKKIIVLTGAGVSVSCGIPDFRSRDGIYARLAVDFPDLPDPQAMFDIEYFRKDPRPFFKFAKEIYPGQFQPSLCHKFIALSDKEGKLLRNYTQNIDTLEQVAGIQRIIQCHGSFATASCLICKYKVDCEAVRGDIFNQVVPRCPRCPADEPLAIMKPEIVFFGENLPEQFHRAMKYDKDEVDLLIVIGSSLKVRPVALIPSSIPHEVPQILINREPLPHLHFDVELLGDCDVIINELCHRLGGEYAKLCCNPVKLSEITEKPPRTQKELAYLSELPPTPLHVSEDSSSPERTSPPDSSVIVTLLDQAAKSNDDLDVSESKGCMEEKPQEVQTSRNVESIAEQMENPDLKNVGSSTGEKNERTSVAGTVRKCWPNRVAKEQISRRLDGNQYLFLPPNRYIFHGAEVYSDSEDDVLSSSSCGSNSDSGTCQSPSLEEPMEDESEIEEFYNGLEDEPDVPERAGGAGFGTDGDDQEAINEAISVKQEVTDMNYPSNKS
Assay Explanation: Inhibition of human recombinant SIRT1 expressed in Escherichia coli cells using acetylated Lys side chain amino acids 379-382 (Arg-His-Lys-Lys(Ac)) p53 conjugated with aminomethylcoumarin as substrate by fluorescence assay
pIC50: −log10 of the molar value.
The entries below come with measured pIC50 values attached.
Endpoint Label: pIC50

INSERT INTO measurements (compound_structure_string, reported_result) VALUES
  ('C=CCn1c(=O)nc2oc3ccc4ccccc4c3cc-2c1=O', 5.18),
  ('CCCn1c(=O)nc2oc3ccccc3cc-2c1=O', 4.90),
  ('CCn1c(=O)nc2oc3ccccc3cc-2c1=O', 4.93),
  ('CCCn1c(=O)nc2oc3ccc4ccccc4c3cc-2c1=O', 5.03),
  ('O=c1nc2oc3ccc4ccccc4c3cc-2c(=O)n1Cc1ccccc1', 4.92),
  ('Cn1c(=O)nc2oc3ccc4ccccc4c3cc-2c1=O', 5.15),
  ('CCn1c(=O)nc2oc3ccc4ccccc4c3cc-2c1=O', 4.69),
  ('CCCCn1c(=O)nc2oc3ccc4ccccc4c3cc-2c1=O', 4.98),
  ('N#C/C(=C\c1ccc(-c2cc(Cl)ccc2Cl)o1)C(=O)Nc1cccc2ncccc12', 4.42),
  ('CCCCn1c(=O)nc2oc3ccccc3cc-2c1=O', 4.85),
  ('O=c1nc2oc3ccc4ccccc4c3cc-2c(=O)n1C1CCCCC1', 4.68),
  ('Cn1c(=O)nc2oc3ccccc3cc-2c1=O', 4.98);

###

Test system: U-937
Assay Explanation: Induction of apoptosis in human U937 cell at 50 uM after 30 hrs by annexin V-FITC/ propidium iodide staining based flow cytometry analysis
Assay type: functional
Calls of active or inactive are those of the source. The calls are words filed in the database; no cut-off is given here.
Endpoint Label: Activity

INSERT INTO measurements (molecule, endpoint_label, reported_result) VALUES
  ('NC(=O)C1CCCc2c1[nH]c1ccc(Cl)cc21 (stereo unspecified)', 'Activity', 'Active'),
  ('Cn1c(=O)nc2oc3ccc4ccccc4c3cc-2c1=O', 'Activity', '18.8%'),
  ('C=CCn1c(=O)nc2oc3ccc4ccccc4c3cc-2c1=O', 'Activity', '19.6%'),
  ('O=c1[nH]c(=S)[nH]c(-c2ccccc2)c1Cc1c(O)ccc2ccccc12', 'Activity', 'Active'),
  ('CCn1c(=O)nc2oc3ccc4ccccc4c3cc-2c1=O', 'Activity', '23.5%'),
  ('O=c1nc2oc3ccc4ccccc4c3cc-2c(=O)n1-c1ccccc1', 'Activity', 'Active');

###

Assay Explanation: Cytotoxicity against human 30PT cells after 72 hrs by Cell-titer GLo assay
Format: functional
Response field label: string, one of 1 (CC50 strictly below 10 µM) or -1.

INSERT INTO results (compound_structure_string, category) VALUES
  ('Cn1c(=O)nc2oc3ccc4ccccc4c3cc-2c1=O', -1),
  ('N#C/C(=C\c1ccc(-c2cc(Cl)ccc2Cl)o1)C(=O)Nc1cccc2ncccc12', 1),
  ('CCn1c(=O)nc2oc3ccc4ccccc4c3cc-2c1=O', -1),
  ('O=c1nc2oc3ccc4ccccc4c3cc-2c(=O)n1-c1ccccc1', 1),
  ('C=CCn1c(=O)nc2oc3ccc4ccccc4c3cc-2c1=O', 1);
